pKi: −log10 of the molar value.
Entries below carry reported pKi on human 5-HT2A receptor (Homo sapiens (Human)).
Sequence (P28223 whole entry): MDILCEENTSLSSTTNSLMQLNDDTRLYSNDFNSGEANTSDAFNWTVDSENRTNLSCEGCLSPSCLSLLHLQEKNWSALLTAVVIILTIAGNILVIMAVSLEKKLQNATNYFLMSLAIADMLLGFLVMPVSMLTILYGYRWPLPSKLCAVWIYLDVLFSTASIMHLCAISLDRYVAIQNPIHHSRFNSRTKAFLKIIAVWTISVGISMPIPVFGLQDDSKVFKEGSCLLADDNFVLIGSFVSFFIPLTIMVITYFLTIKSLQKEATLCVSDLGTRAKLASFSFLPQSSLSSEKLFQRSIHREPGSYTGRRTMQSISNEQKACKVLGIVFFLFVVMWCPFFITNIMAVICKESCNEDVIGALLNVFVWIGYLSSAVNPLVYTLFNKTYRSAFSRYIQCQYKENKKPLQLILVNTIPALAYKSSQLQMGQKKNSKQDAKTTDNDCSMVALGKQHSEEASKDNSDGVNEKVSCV
MEASUREMENT LABEL: pKi

{"MOLECULE": "O=C(CCC(F)(F)F)N[C@H]1CC[C@H](CCN2CCC(c3coc4ccccc34)CC2)CC1", "REPORTED": 7.83}
{"MOLECULE": "N#CCC(=O)N[C@H]1CC[C@H](CCN2CCC(c3coc4ccccc34)CC2)CC1", "REPORTED": 8.22}
{"MOLECULE": "O=C(CO)N[C@H]1CC[C@H](CCN2CCC(c3coc4ccccc34)CC2)CC1", "REPORTED": 8.31}
{"MOLECULE": "CO[C@H]1CC[C@H](CC(=O)N[C@H]2CC[C@H](CCN3CCC(c4coc5ccccc45)CC3)CC2)CC1", "REPORTED": 8.09}
{"MOLECULE": "CC[C@H](O)CC(=O)N[C@H]1CC[C@H](CCN2CCC(c3coc4ccccc34)CC2)CC1", "REPORTED": 8.04}
{"MOLECULE": "Cc1ccc(S(=O)(=O)N[C@H]2CC[C@H](CCN3CCC(c4coc5ccccc45)CC3)CC2)cc1", "REPORTED": 7.38}
{"MOLECULE": "O=C(N[C@H]1CC[C@H](CCN2CCC(c3coc4ccccc34)CC2)CC1)C1(O)CC1", "REPORTED": 8.52}
{"MOLECULE": "CC(C)(C)C1CCC(C(=O)N[C@H]2CC[C@H](CCN3CCC(c4coc5ccccc45)CC3)CC2)CC1 (some centres unmarked)", "REPORTED": 8.22}
